Would you mind telling me the reported composite z-score of each entry?
protocol notes: small-molecule microarray binders of probe aLefty2, primary screen, biochemical, biotinylated probe, 635/667 nm fluorescence (AID 1094);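 note: score merges spot fluorescence near 667 nm with spot signal-to-noise ratio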
test settings: higher = more signal

Query :: Look up and state reported composite z-score for CN1C(=O)C2C(C1=O)C1C=C(c3ccc(CO)cc3)C2C(c2cccs2)N1Cc1cccc(OC(F)(F)F)c1 (stereo not drawn)
Result :: 0.0007

Query :: Please give the documented composite z-score of COCCCNC(=O)[C@]1(CCC(=O)OC(C)(C)C)N=C(c2ccc(OCCCO)cc2)O[C@@H]1c1ccccc1
Result :: 0.629

Query :: Give the value of composite z-score reported for the following: O=C(O)[C@H]1C[C@H]2C(=O)N3CCC[C@H]3C(=O)N2[C@H]1c1cccc(OCCO)c1
Result :: 0.027

Query :: State its composite z-score for this compound: CCCCN1CC=CC23O[C@@H]4/C=C\CCC(C)OC(=O)C4[C@H]2C(=O)N(CCCCCCO)[C@@H]3C1=O (stereo partly drawn)
Result :: -0.212

Query :: Fill in reported composite z-score for this entry: CON(C)C(=O)C=C1C[C@@H](c2cccc(Cl)c2)O[C@@H](c2cccc(Cl)c2)O1
Result :: -0.0309

Query :: Report composite z-score for COCCCNC(=O)[C@]1(Cc2ccccc2N=[N+]=[N-])N=C(c2ccc(OCCCO)cc2)O[C@@H]1c1ccccc1N=[N+]=[N-]
Result :: 0.23

Query :: Note composite z-score for the compound shown: CCOC(=O)C[C@H]1[C@H](OC(=O)Cc2ccc3c(c2)OCO3)[C@@H](NC(=O)Cc2ccc(OC)cc2)c2cc(OCCCO)ccc2N1C(=O)c1ccccc1
Result :: -0.0846

Query :: Give the reported value of composite z-score for this record: C=C(C(=O)CC[C@H](OC(=O)c1cccnc1)c1cccc(OCCO)c1)C(C)C
Result :: -0.017

====

measurement target: Calmodulin-1 (Homo sapiens) (UniProt P0DP23)
protocol notes: CALM1 binders on microarrays, EGTA buffer, profiling panel, biochemical, small-molecule microarray, Cy5-labelled CALM1 (AID 1111);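 note: labelled calmodulin applied in Tris saline Tween buffer holding calcium plus EGTA and DTT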
test settings: Cy5-CALM1 binding fluorescence, higher = more signal
Can you tell me composite z-score for the items I'm about to list?
I'd appreciate a reply containing only the number, no unit.

Query :: Annotate the molecule C[C@]12C(=O)N(CCCCCCO)[C@@H]3C(=O)N(c4ccc(Cl)cc4)CC=CC31O[C@@H]1/C=C\CCCOC(=O)C12 (some centres undefined) with its measured composite z-score.
Result :: -0.821

Query :: Give composite z-score for the following molecule: COc1ccc(CCNC(=O)[C@@]2(Sc3ccc(C)cc3)CC(=O)N(Cc3cc(C(F)(F)F)cc(C(F)(F)F)c3)[C@@H]2c2ccc(CO)cc2I)cc1
Result :: 0.435

Query :: Answer with the recorded composite z-score for the molecule listed here: O=C(CS)NCCCCCCNC(=O)[C@@H]1C[C@@H]2C(=O)N3CCC[C@H]3C(=O)N2[C@@H]1c1cccc(OCCO)c1
Result :: 1.49

Query :: Tell me measured composite z-score for COC(=O)[C@@]1(Cc2ccc(F)cc2)[C@H]2c3cc(C(=O)N4CCCC4)n(CCF)c3C[C@H]2CN1C(=O)c1ccccc1 please.
Result :: 2.74

Query :: Give the value of composite z-score reported for the following: CC(C)N1CC=CC23O[C@@H]4C=CCCOC(=O)C4[C@H]2C(=O)N(CCO)[C@@H]3C1=O (some centres undefined)
Result :: -0.343

Query :: Tell us which composite z-score value is on record for CC(C)C(=C=CC[C@H](O)c1ccc(OCCO)cc1)C[C@H](O)c1cc(Cl)cc(Cl)c1O
Result :: -0.0205

Query :: Name the recorded composite z-score of the molecule listed here: CCOC(=O)C1=CC[C@@H](c2ccccc2)N(S(=O)(=O)c2ccc(C)cc2)C1
Result :: -0.11

Query :: Identify the reported composite z-score for the following entry. CCOC(=O)C[C@H]1[C@H](OC(=O)c2ccc(-c3ccccc3)cc2)[C@@H](NC(=O)c2ccc3ccccc3n2)c2cc(OCCCO)ccc2N1C(=O)c1ccccc1
Result :: 0.992

Query :: Indicate the recorded composite z-score value for this molecule: C[C@H]1C2=C3C(CC[C@H]4C(OCc5ccc(F)cc5C(F)(F)F)OC[C@](C)([C@@H]34)N(C(=O)OC(C)(C)C)C2)C(CO)C1CO (some centres undefined)
Result :: 2.4

Query :: Please give the documented composite z-score of O=C1O[C@@H](c2ccccc2)[C@@H](c2ccccc2)N2[C@@H](c3ccc(O)cc3)[C@]3(C(=O)Nc4ccccc43)[C@@H](C(=O)Nc3nc4ccccc4s3)[C@H]12
Result :: 1.28

Query :: # return recorded composite z-score for entry COCCOC(=O)N1C(=O)[C@@]2(c3cc(C#CC4(O)CCCCCC4)ccc31)[C@H](c1ccccc1OCCO)N1[C@H](c3ccccc3)[C@H](c3ccccc3)OC(=O)[C@H]1[C@@H]2C(N)=O
Result :: 1.06

Query :: Note down composite z-score recorded for CCOc1cc(C(O)C2C=CC3C(=O)N(C)C(=O)C3N2N2CCCCC2)ccc1O (centres undefined)
Result :: -0.0003

Query :: Query composite z-score for CO[C@H]1O[C@H](CO)[C@@H](OC(=O)Nc2ccc(C(F)(F)F)cc2)[C@H](OC(=O)Nc2ccc3c(c2)OCO3)[C@H]1OC(=O)Nc1ccc2c(c1)OCO2
Result :: 1.84

Query :: Please look at this molecule and report its composite z-score: CC(C)C[C@@H]1NC(=O)[C@H]2C[C@@H](C(=O)NCCCCCC[N+](C)(C)C)[C@@H](c3cccc(OCCO)c3)N2C1=O
Result :: -0.432
